target: mouse c-fms (Mus musculus)
Construct: Macrophage-like cell line BAC-1.2F5 which expresses c-fms as a M-CSF receptor on cell membranes; endogenous in cells
Sequence (P09581 20-977): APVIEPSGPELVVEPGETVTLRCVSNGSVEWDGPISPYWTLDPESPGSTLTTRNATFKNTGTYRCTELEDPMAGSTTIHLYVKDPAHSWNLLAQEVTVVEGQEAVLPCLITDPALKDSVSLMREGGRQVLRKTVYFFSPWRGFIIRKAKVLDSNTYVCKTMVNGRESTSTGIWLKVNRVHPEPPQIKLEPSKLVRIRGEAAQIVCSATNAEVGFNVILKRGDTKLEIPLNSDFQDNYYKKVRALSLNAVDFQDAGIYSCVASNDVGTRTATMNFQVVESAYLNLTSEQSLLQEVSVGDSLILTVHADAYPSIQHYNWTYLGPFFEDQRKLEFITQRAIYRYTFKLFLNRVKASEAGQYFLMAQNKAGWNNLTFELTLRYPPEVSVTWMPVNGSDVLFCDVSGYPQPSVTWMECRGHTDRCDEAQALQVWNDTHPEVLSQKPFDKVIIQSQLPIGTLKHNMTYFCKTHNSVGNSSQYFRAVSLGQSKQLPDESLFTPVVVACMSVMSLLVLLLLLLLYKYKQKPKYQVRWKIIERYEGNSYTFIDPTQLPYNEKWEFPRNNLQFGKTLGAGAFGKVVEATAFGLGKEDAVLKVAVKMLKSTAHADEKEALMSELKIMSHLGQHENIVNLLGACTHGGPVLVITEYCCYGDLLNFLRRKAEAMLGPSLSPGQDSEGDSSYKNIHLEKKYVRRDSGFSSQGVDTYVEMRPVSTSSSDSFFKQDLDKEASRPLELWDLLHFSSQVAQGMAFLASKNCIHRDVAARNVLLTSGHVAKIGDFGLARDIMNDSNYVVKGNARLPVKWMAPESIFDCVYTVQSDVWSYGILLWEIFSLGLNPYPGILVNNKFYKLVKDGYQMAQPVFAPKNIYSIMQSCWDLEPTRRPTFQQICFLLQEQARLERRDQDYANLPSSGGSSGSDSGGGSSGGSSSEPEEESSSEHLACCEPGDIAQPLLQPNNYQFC
experimentalProtocol: Inhibition of c-fms autophosphorylation in macrophage-like cell line BAC-1.2F5 by M-CSF stimulation (ELISA)
testContext: BAC-1.2F5 cells, human recombinant M-CSF 50 ng/ml, read-out: c-fms autophosphorylation 50% inhibitory concentration (IC50)
In plain terms, low IC50, meaning strictly below 8 nM, gives Criterion met, and everything else gives Criterion not met.

Here are 4 compounds together with their reported answers.
| compound | assignedClass |
| --- | --- |
| COc1cc2nccc(Oc3ccc(NC(=O)N[C@@H](C)c4ccc(C)cc4)cc3)c2cc1OC [Example 41] | Criterion met |
| COc1cc2nccc(Oc3ccc(NC(=O)N[C@H](C)c4ccc(F)cc4)c(C)c3)c2cc1OC [Example 15] | Criterion met |
| COc1cc2nccc(Oc3ccc(NC(=O)N[C@H](C)c4nccs4)c(F)c3)c2cc1OC [Example 72] | Criterion met |
| COc1cc2nccc(Oc3ccc(NC(=O)N[C@H](C)c4ccc(F)cc4)c(C(F)(F)F)c3)c2cc1OC [Example 21] | Criterion not met |

Q. Item COc1cc2nccc(Oc3ccc(NC(=O)NC(C)c4nc(C)cs4)cc3)c2cc1OC (stereo not shown) [Example 91] : IC50 beneath 8 nM, strictly?
A. Criterion met

Q. Item COc1cc2nccc(Oc3ccc(NC(=O)N[C@@H](C)c4ccc(F)cc4)cc3F)c2cc1OC [Example 32] : IC50 beneath 8 nM, strictly?
A. Criterion met

Q. Item COc1cc2c(Oc3ccc(NC(=O)NC(C)c4ccc(F)cc4)cc3F)ccnc2cc1OCCCN1CCOCC1 (stereo not shown) [Example 64] : IC50 beneath 8 nM, strictly?
A. Criterion not met

Q. Item COc1cc2nccc(Oc3ccc(NC(=O)NC(C)c4ccc(F)cc4)cc3F)c2cc1OC (stereo not shown) [Example 31] : IC50 beneath 8 nM, strictly?
A. Criterion not met

Q. Item COc1cc2nccc(Oc3ccc(NC(=O)N[C@H](C)c4cccc(Br)c4)cc3)c2cc1OC [Example 45] : IC50 beneath 8 nM, strictly?
A. Criterion not met

Q. Item COc1cc2nccc(Oc3ccc(NC(=O)N[C@@H](C)c4ccc(F)cc4)cc3)c2cc1OC [Example 2] : IC50 beneath 8 nM, strictly?
A. Criterion met

Q. Item COc1cc2nccc(Oc3ccc(NC(=O)NC(C)c4ncc(C)s4)c(F)c3)c2cc1OC (stereo not shown) [Example 101] : IC50 beneath 8 nM, strictly?
A. Criterion not met

Q. Item COc1cc2nccc(Oc3ccc(NC(=O)N[C@H](C)c4ccc([N+](=O)[O-])cc4)cc3)c2cc1OC [Example 36] : IC50 beneath 8 nM, strictly?
A. Criterion not met

Q. Item COc1cc2nccc(Oc3ccc(NC(=O)N[C@@H](C)c4ccc(F)cc4)c(F)c3)c2cc1OC [Example 29] : IC50 beneath 8 nM, strictly?
A. Criterion met

Q. Item COc1cc2nccc(Oc3ccc(NC(=O)N[C@@H](C)c4ccc(F)cc4)cc3Cl)c2cc1OC [Example 11] : IC50 beneath 8 nM, strictly?
A. Criterion not met

Q. Item COc1cc2nccc(Oc3ccc(NC(=O)N[C@H](C)c4ccc(C)cc4)cc3)c2cc1OC [Example 42] : IC50 beneath 8 nM, strictly?
A. Criterion not met

----------
target: Human KDR (Homo sapiens, UniProt P35968)
Construct: expressed in transfected cells; host or cells: NIH3T3 cells (mouse fibroblasts)
Sequence (P35968 20-1356): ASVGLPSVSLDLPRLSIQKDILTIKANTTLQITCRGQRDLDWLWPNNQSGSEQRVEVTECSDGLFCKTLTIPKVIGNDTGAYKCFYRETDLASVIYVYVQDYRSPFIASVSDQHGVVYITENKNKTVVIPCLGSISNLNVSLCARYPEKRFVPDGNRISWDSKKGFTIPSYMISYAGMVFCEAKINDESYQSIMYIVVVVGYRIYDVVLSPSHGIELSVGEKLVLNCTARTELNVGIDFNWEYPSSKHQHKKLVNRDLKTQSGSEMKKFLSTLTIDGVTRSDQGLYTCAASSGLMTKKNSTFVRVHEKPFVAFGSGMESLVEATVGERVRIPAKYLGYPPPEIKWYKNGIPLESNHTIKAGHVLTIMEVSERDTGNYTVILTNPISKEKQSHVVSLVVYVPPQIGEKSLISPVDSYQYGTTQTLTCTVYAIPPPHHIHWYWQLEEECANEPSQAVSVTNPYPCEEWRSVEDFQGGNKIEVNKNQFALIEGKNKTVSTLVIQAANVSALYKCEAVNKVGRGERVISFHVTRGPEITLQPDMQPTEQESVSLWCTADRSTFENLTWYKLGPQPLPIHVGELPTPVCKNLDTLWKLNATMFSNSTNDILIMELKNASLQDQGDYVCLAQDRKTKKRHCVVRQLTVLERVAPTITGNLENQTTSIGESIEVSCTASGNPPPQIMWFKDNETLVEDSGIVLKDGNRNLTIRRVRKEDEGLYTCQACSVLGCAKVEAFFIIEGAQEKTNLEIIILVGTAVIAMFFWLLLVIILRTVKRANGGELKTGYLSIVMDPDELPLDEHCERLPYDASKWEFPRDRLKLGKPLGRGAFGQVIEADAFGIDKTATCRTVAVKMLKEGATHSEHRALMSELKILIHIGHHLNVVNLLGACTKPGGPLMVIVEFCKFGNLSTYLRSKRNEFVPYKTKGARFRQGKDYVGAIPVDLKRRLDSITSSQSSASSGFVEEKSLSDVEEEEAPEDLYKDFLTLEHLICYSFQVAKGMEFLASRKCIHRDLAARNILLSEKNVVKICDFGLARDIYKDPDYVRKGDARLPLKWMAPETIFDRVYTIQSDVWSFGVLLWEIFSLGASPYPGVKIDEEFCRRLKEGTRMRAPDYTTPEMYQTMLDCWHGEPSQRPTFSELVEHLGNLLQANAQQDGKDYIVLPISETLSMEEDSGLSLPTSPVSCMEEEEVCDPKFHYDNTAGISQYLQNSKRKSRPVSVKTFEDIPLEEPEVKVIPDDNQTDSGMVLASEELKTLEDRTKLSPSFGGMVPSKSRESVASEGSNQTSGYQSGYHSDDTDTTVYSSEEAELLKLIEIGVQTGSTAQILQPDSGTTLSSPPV
experimentalProtocol: Inhibition of KDR phosphorylation in human KDR-transfected NIH3T3 cells (ELISA);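 as to Selection ratio (KDR phosphorylation IC50 / c-fms phosphorylation IC50): class 2 means ratio of 10 or more and class 3 means 50 or more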
Format: cell-based
testContext: class 0-3
Could you please report measured Selection ratio (KDR phosphorylation IC50 / c-fms phosphorylation IC50) for the items listed next?

| molecule | measurement |
| --- | --- |
| COc1cc2nccc(Oc3ccc(NC(=O)NC(C)c4nc(C)cs4)cc3F)c2cc1OC (centres unmarked) | 1 (when the value was 5 or more) |
| COc1cc(Oc2ccnc3cc(OC)c(OC)cc23)ccc1NC(=O)NC(C)c1nc(C)c(C)s1 (centres unmarked) | 2 (when the value was 10 or more) |
| COc1cc2nccc(Oc3ccc(NC(=O)N[C@@H](C)c4ccc(F)cc4)cc3F)c2cc1OC | 1 (when the value was 5 or more) |

Consider now this further molecule.
Q. // returns reported Selection ratio (KDR phosphorylation IC50 / c-fms phosphorylation IC50) for input COc1cc(Oc2ccnc3cc(OC)c(OC)cc23)ccc1NC(=O)NC(C)c1nc(C)cs1 (centres unmarked)
A. 2 (when the value was 10 or more)

----------
Could you please report measured Selection ratio (KDR phosphorylation IC50 / c-fms phosphorylation IC50) for the items listed next?
target: Human KDR (Homo sapiens)
Construct: expressed in transfected cells; host or cells: NIH3T3 cells (mouse fibroblasts)
experimentalProtocol: Inhibition of KDR phosphorylation in human KDR-transfected NIH3T3 cells (ELISA);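 as to Selection ratio (KDR phosphorylation IC50 / c-fms phosphorylation IC50): class 2 means ratio of 10 or more and class 3 means 50 or more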
Type: cell-based
testContext: class 0-3

| smiles | measurement |
| --- | --- |
| COc1cccc([C@H](C)NC(=O)Nc2ccc(Oc3ccnc4cc(OC)c(OC)cc34)cc2)c1 | 2 (when the value was 10 or more) |

Consider now this further compound.
Q. // returns reported Selection ratio (KDR phosphorylation IC50 / c-fms phosphorylation IC50) for input COc1cc2nccc(Oc3ccc(NC(=O)N[C@@H](C)c4cccc(Br)c4)cc3)c2cc1OC
A. 3 (when the value was 50 or more)

----------
target: Human KDR (Homo sapiens, UniProt P35968)
Construct: expressed in transfected cells; host or cells: NIH3T3 cells (mouse fibroblasts)
experimentalProtocol: Inhibition of KDR phosphorylation in human KDR-transfected NIH3T3 cells (ELISA)
Type: cell-based
testContext: human KDR-transfected NIH3T3 cells, VEGF 100 ng/ml, ELISA; read-out: KDR phosphorylation 50% inhibitory concentration (IC50)
In plain terms, low IC50, meaning strictly below 100 nM, gives label 1, and everything else gives label 0.

| molecule | assignedClass |
| --- | --- |
| COc1cc2nccc(Oc3ccc(NC(=O)N[C@H](C)c4nccs4)c(F)c3)c2cc1OC | label 1 |
| COc1cc2nccc(Oc3ccc(NC(=O)NC(C)c4nc(C)cs4)c(F)c3)c2cc1OC (centres unmarked) | label 1 |

Q. Item COc1cc2nccc(Oc3ccc(NC(=O)N[C@@H](C)c4ccc(F)cc4)cc3Cl)c2cc1OC : IC50 beneath 100 nM, strictly?
A. label 0

Q. Item COc1cccc([C@@H](C)NC(=O)Nc2ccc(Oc3ccnc4cc(OC)c(OC)cc34)cc2)c1 : IC50 beneath 100 nM, strictly?
A. label 1

----------
Could you please report measured IC50 for the items listed next?
target: mouse c-fms (Mus musculus)
Construct: Macrophage-like cell line BAC-1.2F5 which expresses c-fms as a M-CSF receptor on cell membranes; endogenous in cells
experimentalProtocol: Inhibition of c-fms autophosphorylation in macrophage-like cell line BAC-1.2F5 by M-CSF stimulation (ELISA)
testContext: BAC-1.2F5 cells, human recombinant M-CSF 50 ng/ml, read-out: c-fms autophosphorylation 50% inhibitory concentration (IC50)
Numbers only, in nM.

| compound | IC50 [nM] |
| --- | --- |
| COc1cc2nccc(Oc3cc(C)c(NC(=O)N[C@H](C)c4nccs4)cc3C)c2cc1OC | 26.5 |
| COc1cc2nccc(Oc3ccc(NC(=O)N[C@H](C)c4cccc(Br)c4)cc3Cl)c2cc1OC | 128 |
| COc1cc2c(Oc3ccc(NC(=O)NC(C)c4ccc(F)cc4F)c(F)c3)ccnc2cc1OCCCN1CCOCC1 (stereo not shown) | 11.5 |

Consider now this further compound.
Q. mouse c-fms (Mus musculus) / IC50 / COc1cc2nccc(Oc3ccc(NC(=O)NC(C)c4nccs4)c(C(F)(F)F)c3)c2cc1OC (stereo not shown) : value?
A. 10.2
